Values compiled from patent US20260265203A1.

Assay: Solubility experiments in biosolvents and water
Assay type: physicochemical
Details: thermodynamic from solid; FeSSIF, 2 h
measurement.kind: solubility at 2 h (µg/mL)
Answers are plain numbers, in µg/mL.

## Input Please indicate solubility at 2 h recorded for NCc1cccc(-c2cc(COc3ccccc3CC(=O)O)cc(N3CCC4(CC3)CC4)c2)c1 [crystal form I]
## Output 700

* * *

Assay: Solubility experiments in biosolvents and water
Format: physicochemical
Conditions: simulated gastric fluid, thermodynamic from solid; SGF; read-out: solubility in SGF
measurement.kind: solubility

## Input Please indicate solubility recorded for NCc1cccc(-c2cc(COc3ccccc3CC(=O)O)cc(N3CCC4(CC3)CC4)c2)c1 [crystal form I]
## Output > 5000 µg/mL

* * *

Experiment: Solubility experiments in biosolvents and water
Format: physicochemical
Conditions: thermodynamic from solid; FaSSIF, FeSSIF, and water; read-out: solubility in FaSSIF, FeSSIF, and water
measurement.kind: solubility

## Input Please indicate solubility recorded for NCc1cccc(-c2cc(COc3ccccc3CC(=O)O)cc(N3CCC4(CC3)CC4)c2)c1 [crystal form I]
## Output < 730 µg/mL

* * *

Assay: Solubility experiments in biosolvents and water
Format: physicochemical
Conditions: thermodynamic from solid; FaSSIF, 0.5 h
measurement.kind: solubility at 0.5 h (µg/mL)
One number for each entry, in µg/mL.

## Input Please indicate solubility at 0.5 h recorded for NCc1cccc(-c2cc(COc3ccccc3CC(=O)O)cc(N3CCC4(CC3)CC4)c2)c1 [crystal form I]
## Output 54

* * *

Assay: Solubility experiments in biosolvents and water
Type: physicochemical
Conditions: thermodynamic from solid; FaSSIF, 24 h
measurement.kind: solubility at 24 h
Give the figure together with its unit, number first.

## Input Please indicate solubility at 24 h recorded for NCc1cccc(-c2cc(COc3ccccc3CC(=O)O)cc(N3CCC4(CC3)CC4)c2)c1 [crystal form I]
## Output 0.075 mg/mL

* * *

Assay: Solubility experiments in biosolvents and water
Type: physicochemical
Conditions: simulated gastric fluid, thermodynamic from solid; SGF, 2 h
measurement.kind: solubility at 2 h

## Input Please indicate solubility at 2 h recorded for NCc1cccc(-c2cc(COc3ccccc3CC(=O)O)cc(N3CCC4(CC3)CC4)c2)c1 [crystal form I]
## Output > 5000 µg/mL

* * *

Assay: Solubility experiments in biosolvents and water
Type: physicochemical
Conditions: thermodynamic from solid; Water, 24 h
measurement.kind: solubility at 24 h
Give the figure together with its unit, number first.

## Input Please indicate solubility at 24 h recorded for NCc1cccc(-c2cc(COc3ccccc3CC(=O)O)cc(N3CCC4(CC3)CC4)c2)c1 [crystal form I]
## Output 0.58 µg/mL
